tested on: 996289-038-R-J1-PDC complex spheroid viability; test: Anticancer human tumor 996289-038-R-J1-PDC patient-derived colon adenocarcinoma cell line growth inhibition [CLK]; conditions: second compound 1 µM; first compound 0.0949 µM; hits give low values;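 further: spheroids exposed to the agents for 7 days before readout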
Recorded viability, T/C values for a group of compounds are listed next.

Known results for compounds:
INSERT INTO results (compound, target_or_system, result) VALUES
  ('NC(=O)C(=Cn1cnc(-c2cc(C(F)(F)F)cc(C(F)(F)F)c2)n1)c1cncnc1 + CNC(=O)c1ccc(Nc2nc(OC3CCCC3)c3c(-c4ccc5nc(C)oc5c4)c[nH]c3n2)c(OC)c1', '996289-038-R-J1-PDC complex spheroid viability', '19.5%'),
  ('CC(C)CC(NC(=O)C(Cc1ccccc1)NC(=O)c1cnccn1)B(O)O (stereo not drawn) + CN1CCN(c2cc(C(=O)Nc3cc4cc(-c5cnn(C)c5)ccc4cn3)ccn2)CC1', '996289-038-R-J1-PDC complex spheroid viability', '0.24%');

# evaluate next
For the compound shown here, C=CC(=O)Nc1cc(Nc2nccc(-c3cn(C)c4ccccc34)n2)c(OC)cc1N(C)CCN(C)C + CN1CCN(c2cc(C(=O)Nc3cc4cc(-c5cnn(C)c5)ccc4cn3)ccn2)CC1 , give the reported viability, T/C.
4.43%
